// data source = patent US20230117034A1

tested.on: CDK12 (nuclear staining in CAL-120 cells) (Homo sapiens)
Construct: endogenous in cells; host or cells: CAL-120 human breast cancer cells (DSMZ ACC 459)
Sequence (Q9NYV4 whole entry): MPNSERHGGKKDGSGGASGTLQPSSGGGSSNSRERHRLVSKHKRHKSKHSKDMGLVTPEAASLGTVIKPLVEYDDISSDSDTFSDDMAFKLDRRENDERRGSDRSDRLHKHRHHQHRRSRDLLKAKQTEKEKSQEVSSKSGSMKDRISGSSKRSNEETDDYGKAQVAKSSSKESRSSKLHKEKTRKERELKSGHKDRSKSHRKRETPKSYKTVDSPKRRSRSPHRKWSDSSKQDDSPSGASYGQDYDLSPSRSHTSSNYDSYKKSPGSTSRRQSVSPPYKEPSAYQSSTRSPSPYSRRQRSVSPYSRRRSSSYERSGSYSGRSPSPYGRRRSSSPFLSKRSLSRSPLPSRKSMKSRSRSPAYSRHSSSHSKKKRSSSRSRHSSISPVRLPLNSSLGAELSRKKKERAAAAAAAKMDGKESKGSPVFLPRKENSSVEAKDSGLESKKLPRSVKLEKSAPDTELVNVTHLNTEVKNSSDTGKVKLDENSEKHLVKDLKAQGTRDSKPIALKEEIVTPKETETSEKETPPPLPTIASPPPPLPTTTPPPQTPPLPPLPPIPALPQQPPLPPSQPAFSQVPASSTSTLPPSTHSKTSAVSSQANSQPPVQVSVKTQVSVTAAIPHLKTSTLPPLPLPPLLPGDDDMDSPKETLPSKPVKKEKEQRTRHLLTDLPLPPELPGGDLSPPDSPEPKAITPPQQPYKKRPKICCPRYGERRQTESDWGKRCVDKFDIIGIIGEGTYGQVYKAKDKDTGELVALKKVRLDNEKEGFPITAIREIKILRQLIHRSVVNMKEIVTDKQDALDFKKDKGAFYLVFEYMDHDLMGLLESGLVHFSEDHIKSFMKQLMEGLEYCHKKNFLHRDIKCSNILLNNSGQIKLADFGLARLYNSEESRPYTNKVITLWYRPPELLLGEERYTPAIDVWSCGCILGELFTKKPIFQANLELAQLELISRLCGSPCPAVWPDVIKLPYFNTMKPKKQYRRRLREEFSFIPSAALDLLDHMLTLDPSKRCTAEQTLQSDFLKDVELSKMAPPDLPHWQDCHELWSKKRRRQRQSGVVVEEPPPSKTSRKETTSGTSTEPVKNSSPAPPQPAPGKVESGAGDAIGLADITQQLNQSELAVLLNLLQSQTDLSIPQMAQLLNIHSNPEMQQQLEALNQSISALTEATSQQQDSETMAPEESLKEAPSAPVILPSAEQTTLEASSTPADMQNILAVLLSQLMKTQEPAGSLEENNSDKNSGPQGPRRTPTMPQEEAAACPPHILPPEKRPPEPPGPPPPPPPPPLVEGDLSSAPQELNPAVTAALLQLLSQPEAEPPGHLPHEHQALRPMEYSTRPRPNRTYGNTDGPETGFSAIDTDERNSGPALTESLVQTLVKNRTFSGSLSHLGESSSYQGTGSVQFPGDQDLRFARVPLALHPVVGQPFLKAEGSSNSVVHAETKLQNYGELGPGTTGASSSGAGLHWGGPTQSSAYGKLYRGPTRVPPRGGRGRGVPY
Sequence (O75909 whole entry partner): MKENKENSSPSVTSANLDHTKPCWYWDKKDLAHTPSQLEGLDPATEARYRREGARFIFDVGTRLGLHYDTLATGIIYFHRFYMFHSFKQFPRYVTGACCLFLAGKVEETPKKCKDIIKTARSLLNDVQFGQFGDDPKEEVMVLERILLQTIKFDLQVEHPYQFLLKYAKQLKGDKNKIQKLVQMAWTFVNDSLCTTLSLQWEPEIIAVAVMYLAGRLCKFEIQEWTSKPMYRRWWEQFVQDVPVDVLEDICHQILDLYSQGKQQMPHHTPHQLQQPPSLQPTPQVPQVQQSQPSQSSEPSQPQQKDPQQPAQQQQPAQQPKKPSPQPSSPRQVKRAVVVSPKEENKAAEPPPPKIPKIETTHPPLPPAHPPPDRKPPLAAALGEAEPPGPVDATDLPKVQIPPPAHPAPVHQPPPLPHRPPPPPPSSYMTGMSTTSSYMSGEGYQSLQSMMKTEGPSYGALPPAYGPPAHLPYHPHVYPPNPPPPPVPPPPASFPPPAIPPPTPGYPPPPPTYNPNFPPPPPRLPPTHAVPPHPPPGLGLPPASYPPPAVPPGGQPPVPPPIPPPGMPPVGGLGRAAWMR
protocol: CDK12 nuclear protein level: immunofluorescence/high content analysis (CAL-120)
Assay type: cell-based
protocol.conditions: CAL-120 cells, 24 h, immunofluorescence; 50% reduction of nuclear CDK12 staining intensity; median; read-out: CDK12 degradation IF, DC50- [mol/l] (median)
observable: DC50 (nM)

{"compound": "Brc1cnn2c(NCc3nc4ccccc4[nH]3)nc(N3C[C@H]4CC[C@@H]3CO4)nc12 (single isomer, unassigned; enantiomer 2) [Example 391]", "tested.on": "CDK12 (nuclear staining in CAL-120 cells) (Homo sapiens)", "units.symbol": "nM", "measurement": 6.98}
{"compound": "CC(C)c1cnn2c(NCc3nnc(-c4ccccc4)[nH]3)nc(N3CCOCC3)nc12 [Example 33]", "tested.on": "CDK12 (nuclear staining in CAL-120 cells) (Homo sapiens)", "units.symbol": "nM", "measurement": 67.8}
{"compound": "FC(F)(F)Cc1cnn2c(NCc3nc4cc(Cl)ccc4[nH]3)nc(N3CCOCC3)nc12 [Example 299]", "tested.on": "CDK12 (nuclear staining in CAL-120 cells) (Homo sapiens)", "units.symbol": "nM", "measurement": 7.77}

I = FC(F)n1cc(-c2cnn3c(NCc4nc5ccccc5[nH]4)nc(N4CCOCC4)nc23)cn1 [Example 421]
II = CN1CCN(c2nc(NCc3nc4cc(C(F)(F)F)ccc4[nH]3)n3ncc(Br)c3n2)CC1 [Example 344]
III = FC(F)(F)c1cnn2c(NCc3nc4ccccc4[nH]3)nc(N3CCOCC3)nc12 [Example 241]
IV = NCCOCCOCCNc1nc(NCc2nc3ccccc3[nH]2)n2ncc(Br)c2n1 [Example 412]
V = Fc1ccc2[nH]c(CNc3nc(N4CCOCC4)nc4c(C5CCCC5)cnn34)nc2c1F [Example 262]
stdin: Put the entries in order of DC50, starting with the largest number. Output the labels ranked as instructed.
stdout: IV, I, V, II, III
